What protein stability index was measured for each of the following?
System: Saccharomyces cerevisiae
Test: protein stability index of tFT-peptide fusion in wild type (PSI (0-1 scale)); higher = more stable (slower turnover)
Details: genetic background: wild type
The answer should be written as a number, with no unit following it.

What is its protein stability index for Saccharomyces cerevisiae? Entry: GLYMCSVGTWFR
0.514

RVTRLDTIYFRI ?
0.423

RVTYLDAIYFRI ?
0.393

GLYRCSVGCWFR ?
0.428

GLYNCSVGCWFR ?
0.414

RSLRVVLPLYFR ?
0.178

RSLRVLLQLYFR ?
0.383

YITLPMCPLLLR ?
0.337

LITLPMCPLLLR ?
0.349

RTTRLDAIYFRI ?
0.498

GLYMCSVGVWFR ?
0.198

GLYMKSVGCWFR ?
0.257

RYTRLDAIYFRI ?
0.421

GLYMCSWGCWFR ?
0.296

RSLRVLLPLNFR ?
0.535

RVTRLDAIYGRI ?
0.69

RVTRDDAIYFRI ?
0.652

GLYMCSVVCWFR ?
0.253

RSLRVLLNLYFR ?
0.397

RSLRVLLPLYRR ?
0.624

RVTRLDAIYDRI ?
0.696

RVTRLDADYFRI ?
0.686

RVTRLDAIYFGI ?
0.682

YLYMCSVGCWFR ?
0.317

RVGRLDAIYFRI ?
0.412

RVTRLDAIYSRI ?
0.702

GVYMCSVGCWFR ?
0.276

RGTRLDAIYFRI ?
0.57

RTLRVLLPLYFR ?
0.304

RSLRVLHPLYFR ?
0.218

RGLRVLLPLYFR ?
0.378

NVTRLDAIYFRI ?
0.379

RVTRADAIYFRI ?
0.525

RSLSVLLPLYFR ?
0.289

GYYMCSVGCWFR ?
0.227

RSLRVLLPLYQR ?
0.617

YVTRLDAIYFRI ?
0.185

RSLRVLLPFYFR ?
0.564

RSHRVLLPLYFR ?
0.317

RSLRVLLPEYFR ?
0.653

RSLEVLLPLYFR ?
0.219

====

System: Saccharomyces cerevisiae
Test: protein stability index of tFT-peptide fusion in deletion strain of DOA10 (PSI (0-1 scale)); higher = more stable (slower turnover)
recorded_metric: protein stability index
The answer should be written as a number, with no unit following it.

Quick check: protein stability index of VITLPMCPLLLR ?
0.615

RSLRVLHPLYFR ?
0.701

RSLRVLLPEYFR ?
0.677

RVGRLDAIYFRI ?
0.647

RSLRVLLPLPFR ?
0.676

RSLRVLLQLYFR ?
0.606

RVTRLDATYFRI ?
0.69

RTLRVLLPLYFR ?
0.657

RVTRLDADYFRI ?
0.722

RVTRLDAIYSRI ?
0.737

RSLRVLLPIYFR ?
0.663

GLYMKSVGCWFR ?
0.673

RVTRLDAIYDRI ?
0.731

GYYMCSVGCWFR ?
0.643

RSLEVLLPLYFR ?
0.691

RSLNVLLPLYFR ?
0.669

RSLRVLLPLYRR ?
0.673

RSLRRLLPLYFR ?
0.683

YVTRLDAIYFRI ?
0.603
